# Lookup of reported koff keyed by entry
Tested System: T1, CDTb_(D1–D4) monomer (residues 43–876) (Clostridioides difficile, strain not …)
T1 construct: also called full-length (pro) CDTb; pro-CDTb
T1 chain: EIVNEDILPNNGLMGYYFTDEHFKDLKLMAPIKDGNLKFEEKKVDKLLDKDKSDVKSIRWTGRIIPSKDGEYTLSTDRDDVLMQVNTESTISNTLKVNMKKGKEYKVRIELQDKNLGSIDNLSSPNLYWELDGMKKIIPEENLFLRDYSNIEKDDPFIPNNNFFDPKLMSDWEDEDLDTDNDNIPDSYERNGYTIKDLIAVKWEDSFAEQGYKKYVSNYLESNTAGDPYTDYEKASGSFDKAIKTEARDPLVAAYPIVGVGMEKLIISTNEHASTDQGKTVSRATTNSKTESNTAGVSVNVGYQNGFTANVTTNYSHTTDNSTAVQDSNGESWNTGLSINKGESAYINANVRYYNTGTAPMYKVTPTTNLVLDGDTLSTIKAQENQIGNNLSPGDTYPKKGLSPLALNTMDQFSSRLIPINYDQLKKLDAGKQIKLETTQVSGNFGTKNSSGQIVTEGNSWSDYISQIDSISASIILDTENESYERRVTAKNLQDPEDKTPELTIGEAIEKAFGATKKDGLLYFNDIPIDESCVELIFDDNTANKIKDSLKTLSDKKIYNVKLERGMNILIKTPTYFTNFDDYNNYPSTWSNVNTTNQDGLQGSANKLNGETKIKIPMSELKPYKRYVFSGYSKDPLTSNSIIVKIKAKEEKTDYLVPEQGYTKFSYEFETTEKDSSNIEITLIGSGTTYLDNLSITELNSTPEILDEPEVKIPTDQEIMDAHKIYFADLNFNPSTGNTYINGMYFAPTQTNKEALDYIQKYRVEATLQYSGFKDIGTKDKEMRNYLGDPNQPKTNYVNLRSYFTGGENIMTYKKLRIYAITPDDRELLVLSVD
Measurement Protocol: SPR; Carterra LSA^XT, SAHC30M chip, 25 °C; biotinylated Nbs captured at eight densities; CDTb constructs injected at 0.3–300 nM (fourfold dilutions) without regeneration; HBS-T (10 mM HEPES pH 7.4, 150 mM NaCl, 0.05% Tween-20) with 0.5 mg/ml BSA; one-to-one kinetics model
Test Parameters: both partners purified

{"Binder": "Nb A9 (VHH, also called C1A9; source: Expi293F, transfected, purified from supernatant (TALON resin)) VHH: QVQLQESGGGLVQPGGSLRLSCTSSTNMLEFTAVAWWRQAPGKQRDLLAVITRAGVPNYADSKGRFAISRDNAKNTVDLLINTLEPDDTAVYTCNARTSGNINYWGQGTQVTVSS", "Qualifying Sign": "=", "koff (s⁻¹)": "3.2e-05"}
{"Binder": "Nb H12 (VHH, also called C1H12; source: Expi293F, transfected, purified from supernatant (TALON resin)) VHH: QVQLQESGGGLVQPGGSLRLSCAASGDIFSFYTMGWYRQAPGKQRELVATITSPGTTNYADSVKGRFTISRDNAKNMVYLQMTSLKPEDTAVYYCNADRILTTDPQFKYWGQGTQVTVSS", "Qualifying Sign": "=", "koff (s⁻¹)": "6.7e-05"}
{"Binder": "Nb C6 (VHH, also called C1C6; source: Expi293F, transfected, purified from supernatant (TALON resin)) VHH: QVQLQESGGGLVEPGGSLRLSCVASGIVVASSTMSWYRQAPGKQRELVAQIFSGGNTNYRDSVRGRFTISKDNAKNTAYLQMDNLEPDDTAVYYCYARGFWGQGTQVTVSS", "Qualifying Sign": "=", "koff (s⁻¹)": "1.4e-05"}
{"Binder": "Nb G2 (VHH, also called C1G2; source: Expi293F, transfected, purified from supernatant (TALON resin)) VHH: QVQLQESGGGLVQPGGSLTLSCKASGIVFSTHTLAWYRQAPGKHRNVLAVITSAGIPNYDTDLKGRFTISRDNAKNTVYLQMNSLEPEDTAVYYCNARGPHPTVTGTTANYWGQGTQVTVSS", "Qualifying Sign": "≤", "koff (s⁻¹)": "1e-05"}
{"Binder": "Nb H8 (VHH, also called C1H8; source: Expi293F, transfected, purified from supernatant (TALON resin)) VHH: QVQLQESGGGLVQPGRSLRLSCEASDFSLNTFGAGWFRQVPGKEREGVSCISPSNSSTYYADSVKGRFTISRDNAKNTIYLQMNSLKPEDTGVYFCAARPITSAQALCTLLVSDSFTSWGQGTQVTVSS", "Qualifying Sign": "=", "koff (s⁻¹)": 0.00089}
